Data origin: patent US9351955B2

molecular target: CFTR G551D mutant (Homo sapiens, UniProt P13569, G551D); construct: expressed in transfected cells; host or cells: HEK293 (reverse transfection with plasmids); experiment: YFP-halide influx assay for the CFTR-G551D mutation (HEK293 cells); assay type: cell-based; conditions: HEK293 cells expressing CFTR G551D and YFP reporter; forskolin 10.67 μM; read-out: EC50 measured by YFP-halide influx assay for the CFTR-G551D
Sequence (P13569 whole entry G551D): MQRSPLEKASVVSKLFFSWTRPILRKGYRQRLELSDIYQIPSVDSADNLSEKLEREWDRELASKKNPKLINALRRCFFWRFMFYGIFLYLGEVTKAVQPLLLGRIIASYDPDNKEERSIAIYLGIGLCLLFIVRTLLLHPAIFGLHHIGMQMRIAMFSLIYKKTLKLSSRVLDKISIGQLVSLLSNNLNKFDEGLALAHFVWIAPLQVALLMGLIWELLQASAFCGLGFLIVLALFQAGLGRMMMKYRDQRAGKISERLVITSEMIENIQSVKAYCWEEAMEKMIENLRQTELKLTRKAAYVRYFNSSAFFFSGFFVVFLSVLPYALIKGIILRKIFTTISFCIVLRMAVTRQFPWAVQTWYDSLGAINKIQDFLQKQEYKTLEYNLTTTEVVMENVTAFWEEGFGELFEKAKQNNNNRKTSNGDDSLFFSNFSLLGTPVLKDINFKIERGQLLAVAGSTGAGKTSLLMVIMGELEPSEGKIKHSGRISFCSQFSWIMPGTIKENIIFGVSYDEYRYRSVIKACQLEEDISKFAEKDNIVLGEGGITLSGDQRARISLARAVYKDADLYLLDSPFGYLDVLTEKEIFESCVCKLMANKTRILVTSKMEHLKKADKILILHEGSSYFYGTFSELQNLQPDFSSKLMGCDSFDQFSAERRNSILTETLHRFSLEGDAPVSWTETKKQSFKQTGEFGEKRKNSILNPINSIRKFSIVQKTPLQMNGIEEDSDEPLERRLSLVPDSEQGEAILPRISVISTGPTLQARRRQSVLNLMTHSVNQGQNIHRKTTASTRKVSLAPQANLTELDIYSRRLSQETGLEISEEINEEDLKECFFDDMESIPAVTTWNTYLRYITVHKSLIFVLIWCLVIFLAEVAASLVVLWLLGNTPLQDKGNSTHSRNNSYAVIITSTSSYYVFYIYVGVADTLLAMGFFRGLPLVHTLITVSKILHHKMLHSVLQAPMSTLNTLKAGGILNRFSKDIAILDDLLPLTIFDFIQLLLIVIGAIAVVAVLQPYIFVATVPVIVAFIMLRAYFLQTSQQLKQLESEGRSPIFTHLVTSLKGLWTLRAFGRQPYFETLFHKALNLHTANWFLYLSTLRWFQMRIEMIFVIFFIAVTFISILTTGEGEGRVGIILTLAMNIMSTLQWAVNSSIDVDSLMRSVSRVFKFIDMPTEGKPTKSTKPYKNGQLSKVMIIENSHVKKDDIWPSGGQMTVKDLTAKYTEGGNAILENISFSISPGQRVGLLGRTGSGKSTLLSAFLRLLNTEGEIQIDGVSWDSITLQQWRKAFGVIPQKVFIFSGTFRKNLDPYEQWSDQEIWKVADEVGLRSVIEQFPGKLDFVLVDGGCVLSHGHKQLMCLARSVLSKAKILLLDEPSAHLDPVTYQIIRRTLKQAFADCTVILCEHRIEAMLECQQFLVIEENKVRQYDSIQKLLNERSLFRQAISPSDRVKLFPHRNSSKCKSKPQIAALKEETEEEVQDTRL
pEC50: −log10 of the molar value.
readout.label: pEC50

Some solved cases for reference:
{"compound": "CC1(C)Cc2c(sc(NC(=O)[C@@H](O)CC3CC3)c2C(N)=O)C(C)(C)O1", "result.value": 5.29}
{"compound": "CC(C)c1cc(C(=O)Nc2sc3c(c2C(N)=O)CC(C)(C)OC3(C)C)n[nH]1", "result.value": 6.42}

[1] COCc1[nH]nc(C(=O)Nc2sc3c(c2C(N)=O)CC(C)(C)OC3(C)C)c1Cl
[2] CC1(C)Cc2c(sc(NC(=O)c3[nH]nc4c3COC4)c2C(N)=O)C(C)(C)O1
Name the one with the greater pEC50 value, either 1 or 2 as given. Mark your selection by writing its label.
1
(1: 6.54, 2: 6.05)

[a] CC1(C)Cc2c(sc(NC(=O)c3ccno3)c2C(N)=O)C(C)(C)O1
[b] CC1(C)Cc2c(sc(NC(=O)c3ccnn3C(F)F)c2C(N)=O)C(C)(C)O1
[c] Cc1cn[nH]c1C(=O)Nc1sc2c(c1C(N)=O)CC(C)(C)OC2(C)C
[d] CC(C)CC(O)C(=O)Nc1sc2c(c1C(N)=O)CC(C)(C)OC2(C)C (stereo not shown)
Falling order of pEC50, please. Response format: the labels, sorted as the prompt asks.
c, b, d, a
(c: 6.74, b: 6.23, d: 5.85, a: 5.48)

[P] CCC(O)C(=O)Nc1sc2c(c1C(N)=O)CC(C)(C)OC2(C)C (stereo not shown)
[Q] CC1(C)Cc2c(sc(NC(=O)C3(C)CC(F)(F)C3)c2C(N)=O)C(C)(C)O1
[R] CCc1cc(C(=O)Nc2sc3c(c2C(N)=O)CC(C)(C)OC3(C)C)n[nH]1
Arrange the 3 entries by pEC50 so the values rise. Response format: the labels, sorted as the prompt asks.
P, Q, R
(P: 5.48, Q: 6.16, R: 6.72)
